# System: SW480 cells
# Assay Explanation: MTs cell viability assay, SW480
# Type: cell-based, human
# Experimental Conditions: Homo sapiens, SW480; MTs cell viability, 72 h; read-out: IC50 ± SD SW480
pIC50: −log10 of the molar value.
Strictly below 4 in pIC50: satisfied. Otherwise: not satisfied.

[Q] Consider c1ccc2c(c1)c1nc3nonc3nc1n2CCc1nnn[nH]1 [Compound 37] . Does its pIC50 lie strictly below 4?
[A] not satisfied

[Q] Identify whether the compound O=C(O)c1ccc2nc(-c3ccc(Cl)cc3)c(-c3ccc(Cl)cc3)nc2c1 [Compound 15] records pIC50 below 4.
[A] not satisfied

[Q] Here's an entry: COC1=C(C[C@H](C)O)C2c3c(c(O)cc4c3-c3c(cc(O)c5c3C2C(C[C@H](C)O)=C(OC)C5=O)OCO4)C1=O (stereo partly drawn) [Compound 2] . Is its pIC50 below 4?
[A] not satisfied

[Q] Dear colleague, could you confirm whether pIC50 of O=C(O)c1cc(-c2ccc(Oc3ccc(Cl)cc3)cc2)on1 [Compound 16] falls below 4? Thanks.
[A] satisfied

Further cases:
[Q] Find out if reported pIC50 for COc1ccc(/C=C2\SC(=S)N(CCCC(=O)O)C2=O)cc1OC [Compound 9, reference compound] is less than 4
[A] satisfied

====

# Target Or System: β-catenin/Tcf4 PPI (Homo sapiens, UniProt P35222)
# Assay Explanation: biochemical
pKi: −log10 of the molar value.
Measured Attribute: pKi

Noted for N#CCn1c2ccccc2c2nc3nonc3nc21 [Compound 34] : its pKi reads < 3.89

====

# Target Or System: β-catenin/Tcf4 PPI (Homo sapiens, UniProt P35222)
# Experimental Conditions: read-out: FP Ki ± SD; Table 6, fragments of 18
Measured Attribute: pKi
# reply with the number alone; pKi is -log10 of concentration in mol/L

# annotated cases, reported pKi shown
Measured pKi of Nc1nonc1C(=O)NCc1ccccc1 [Compound 25] : 2.77

pKi recorded for this compound, NC(=S)N/N=C1/c2ccccc2-c2nc3nonc3nc21 [Compound 21] , is 3.62

// sample N/N=C1/c2ccccc2-c2nc3nonc3nc21 [Compound 20] , its pKi was 3.64

Noted for Nc1nonc1C(=O)N1CCCC1 [Compound 23] : its pKi reads 2.77

Further cases:
So for O=C1c2ccccc2-c2nc3nonc3nc21 [Compound 19B] , the logged pKi turned out to be 3.51

====

Reported pKi values follow for various molecules
# Target Or System: β-catenin/Tcf4 PPI (Homo sapiens)
# Sequence (P35222 138-686): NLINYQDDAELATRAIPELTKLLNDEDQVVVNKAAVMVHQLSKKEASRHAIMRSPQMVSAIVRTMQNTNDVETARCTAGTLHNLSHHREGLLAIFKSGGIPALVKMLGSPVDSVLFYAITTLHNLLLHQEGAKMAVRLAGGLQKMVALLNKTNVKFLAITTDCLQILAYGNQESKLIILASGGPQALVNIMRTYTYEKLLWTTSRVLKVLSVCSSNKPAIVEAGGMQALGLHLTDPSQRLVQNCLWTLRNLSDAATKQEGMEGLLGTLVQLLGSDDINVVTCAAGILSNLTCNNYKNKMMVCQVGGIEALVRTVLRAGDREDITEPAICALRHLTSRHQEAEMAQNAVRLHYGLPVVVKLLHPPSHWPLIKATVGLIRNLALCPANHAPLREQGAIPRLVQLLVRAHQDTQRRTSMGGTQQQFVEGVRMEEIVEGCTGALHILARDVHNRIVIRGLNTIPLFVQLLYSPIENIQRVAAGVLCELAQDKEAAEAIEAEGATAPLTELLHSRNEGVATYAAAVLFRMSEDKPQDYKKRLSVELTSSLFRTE
# Assay Explanation: biochemical
pKi: −log10 of the molar value.

Input NC(=O)c1nonc1N [Compound 22] . Output pKi: < 2.70

Then this molecule:
# molecule CC(C)CNC(=O)c1nonc1N [Compound 24] ; its pKi = < 2.70
